Assay: Plasma clearance in rat administered with 0.5 mg/kg, iv
Type: ADME, organism-based
Set-up: dose 0.5 mg/kg, route intravenous
Consider the following molecules; for each one, report its clearance.
Numeric only. Scale: mL/min/kg

What does the record list as clearance for CN1CCCC(Oc2ccc(-c3ccc(C(=O)NC4(C(=O)NCC#N)CCCCC4)cc3)cc2)C1 (stereo unspecified) ?
104

What does the record list as clearance for "N#CCNC(=O)C1(NC(=O)c2ccc(-c3ccc(C4(F)CCNCC4)cc3)cc2)CCCCC1" ?
37

What does the record list as clearance for "COCCN1CCC(Oc2ccc(-c3ccc(C(=O)NC4(C(=O)NCC#N)CCCCC4)cc3)cc2)CC1" ?
43

What does the record list as clearance for "N#CCNC(=O)C1(NC(=O)c2ccc(-c3ccc(N4CCNCC4)cc3)cc2)CCCCC1" ?
71

What does the record list as clearance for "CC(C)(C)NC1CCN(c2ccc(-c3ccc(C(=O)NC4(C(=O)NCC#N)CCCCC4)cc3)cc2)CC1" ?
84

What does the record list as clearance for "N#CCNC(=O)C1(NC(=O)c2ccc(-c3ccc(S(=O)(=O)N4CCNCC4)cc3)cc2)CCCCC1" ?
82
